- Tested on: MS2 coat protein
- Test Summary: apparent KD of MS2 coat protein; designed switch direction (-1 OFF switch, 1 ON switch): -1; higher = weaker reporter binding
- Condition: input ligand: microRNA oligo, concentration not stated
Result Type: apparent KD of MS2 coat protein (nM)
State just the number; it will be interpreted in nM.

Take a look at these entries with their results.
[[record]]
sequence_data = "AGCUGUGGCCGAGGAUAUCUAUCUCCAAUAACCGAAAUAUAAUCGGACAUGAGGAUCACCCAUGUAGAGAAGGCGGUCUCAGCA [Eli eng2 - 090] (Eterna round: R96, puzzle: Exclusion NG 2)"
experimental_value = 15

[[record]]
sequence_data = "CAUGUCCAACGAGGAUAUGGUAAAGGAAGUGUACCAGAAGGCGUGCGGACAUGAGGAUCACCCAUGUCGCGCGGUGCGAUGUGG [MOD3 Nando EXNG 1.1] (Eterna round: R96, puzzle: Exclusion NG 1)"
experimental_value = 15.8

[[record]]
sequence_data = "AGAUUACUGCGAGGAUAUACAUGAGGAUCACCCAUGUGGUGGUGUGAGGCAAAGCCUCACACCAUGUAGAAGGCGCAGUAAUCA [Mat - Exclusion NG 2 - Mod of JL - D22] (Eterna round: R96, puzzle: Exclusion NG 2)"
experimental_value = 23.3

[[record]]
sequence_data = "CUAGCGAAUGUAGGAUAUCGGACUGUUUCAGUCUGAGAAGGACAUGAGGAUCACCCAUGUGAAGCUACGUGAGUAGCACGCUAG [JL ENG1 3.86] (Eterna round: R96, puzzle: Exclusion NG 1)"
experimental_value = 18.7


// next entry
Please tell me: apparent KD of MS2 coat protein of CCUCGCAGGCAAGGAUAUCCUACAUUGUUCUGGCCCGGGCAUGCUACAUGAGGAUCACCCAUGUGGGAGAAGGUGCGCCACGGC [Design 31] (Eterna round: R96, puzzle: Exclusion NG 2) , system MS2 coat protein?
28.1

----------
- Tested on: K4 kissing-loop RNA reporter;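 further: bound reporter read as fluorescence of individual clusters on recovered sequencing chips by microscopy, with normalized cluster intensities fitted with a binding model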
- Test Summary: apparent KD of K4 kissing-loop reporter; higher = weaker reporter binding
- Condition: Eterna round: R107; input ligand: arginine 13.2 mM
Result Type: apparent KD of K4 kissing-loop reporter
Numeric answer plus unit only.

Would you please look over these solved cases?
[[record]]
sequence_data = "CCCUCACGAGUGAUGUUCGUAGGGUACAGUCAGGAUAUCAUGCGGUUGAGAAGGGACAGGAAGGGCGGCGGCGGGUUGCUCACCG [Atera]"
target_desc = "K4 kissing-loop RNA reporter"
result_type = "apparent KD of K4 kissing-loop reporter"
experimental_value = "0.163 µM"

[[record]]
sequence_data = "CGAUUUGCUUCAGCCUUAGUGAUGUUAAGGCGAGGACCGGUACGGCCGCCACUCGUAGGUUAUGUGCACGGCGGCGCUAAGGGCC [theeternabot_exclusion_KL_Trp_A_36]"
target_desc = "K4 kissing-loop RNA reporter"
result_type = "apparent KD of K4 kissing-loop reporter"
experimental_value = "0.107 µM"


Lab note: need apparent KD of K4 kissing-loop reporter for GGUGACGACCAGAGGUGAUGUAUAGUAUCGCGAGGACCGGUACGGCCGCCACUCGUGAAGAGAAAGGAGUGAUGUUCCGUAAUGG [Kazoo C9] on K4 kissing-loop RNA reporter, anyone have it?
0.217 µM

----------
- Tested on: MS2 coat protein
- Test Summary: apparent KD of MS2 coat protein; designed switch direction (-1 OFF switch, 1 ON switch): 1; higher = weaker reporter binding
- Condition: input ligand: none
Please mark Met if the recorded apparent KD of MS2 coat protein is equal to or greater than 80 nM, and Not met if it falls below.

[[record]]
sequence_data = "GGAGAGAAGUGAGGAUAUGCAUGGAAGACACAUGAGGAUCACCCAUGUGGGAGGGAGACCGGGAGGUAGAAGGCACUGGGAAGA [AK SSNG2-V2-25.1] (Eterna round: R96, puzzle: Same State NG 2)"
target_desc = "MS2 coat protein"
qualitative_label = "Not met"

[[record]]
sequence_data = "UGUUAUUUGACAGGAUAUUGAUUGUAAAGUUUUUACAUGAGGAUCACCCAUGUUGUUCAUUCGAACAAGAAGGGUCAAGUUUUU [JR_SSNG2_Sub019] (Eterna round: R96, puzzle: Same State NG 2)"
target_desc = "MS2 coat protein"
qualitative_label = "Met"

[[record]]
sequence_data = "GGAGCCGGUACUGAGGAUAUUCAUAUUAAAACAUGAGGAUCACCCAUGUAGGCCAGAAGGCCUUGGGAGAAGGCAGGCCAGCUCG [Atgexeedri - 4] (Eterna round: R96, puzzle: Same State 2)"
target_desc = "MS2 coat protein"
qualitative_label = "Met"

[[record]]
sequence_data = "GCUAGAAUUAAUGCCUACAUGAGGAUCACCCAUGUAUGUAGGCAGGAUAUCGUUUGCUUUGCAAACGAGAAGGGCCUUACUAGC [JL SSNG3 1.10] (Eterna round: R96, puzzle: Same State NG 3)"
target_desc = "MS2 coat protein"
qualitative_label = "Not met"


API: above_or_equal(metric=apparent KD of MS2 coat protein, cutoff=80 nM) for item AAAGAAACAUGAGGAUCACCCAUGUACCGCGGAAUGUGUGCACAGGAUAUGUACAGCUUUUGCUUACAGAAGGGUGCGCCCGUG [Enorso] (Eterna round: R96, puzzle: Same State NG 3)
Not met
